Target: Ubiquitin carboxyl-terminal hydrolase 30 (Homo sapiens) (UniProt Q70CQ3)
Sequence (Q70CQ3 whole entry, looked up): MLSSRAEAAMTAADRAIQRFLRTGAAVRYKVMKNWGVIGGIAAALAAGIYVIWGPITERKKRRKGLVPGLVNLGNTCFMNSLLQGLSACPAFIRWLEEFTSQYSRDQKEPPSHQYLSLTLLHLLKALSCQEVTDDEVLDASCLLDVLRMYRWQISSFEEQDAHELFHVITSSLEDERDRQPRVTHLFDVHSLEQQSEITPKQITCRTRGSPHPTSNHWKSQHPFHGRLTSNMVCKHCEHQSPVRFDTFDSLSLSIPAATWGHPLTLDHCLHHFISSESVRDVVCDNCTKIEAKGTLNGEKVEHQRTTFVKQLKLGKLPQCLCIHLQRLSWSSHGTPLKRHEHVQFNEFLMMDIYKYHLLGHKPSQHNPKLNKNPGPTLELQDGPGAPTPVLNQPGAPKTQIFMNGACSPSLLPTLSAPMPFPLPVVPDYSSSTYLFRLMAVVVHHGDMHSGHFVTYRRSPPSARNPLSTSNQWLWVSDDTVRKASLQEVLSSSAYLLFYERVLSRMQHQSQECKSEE
Experiment: inhibitors of ubiquitin-specific protease 30 deubiquitylating enzyme, concentration dependence, in vitro biochemical, validation of primary hits (AID 1645865)
Conditions: purified USP30, Ub-rhodamine cleavage, fluorescence, 2 h
The source made the active and inactive calls.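 How the source made its calls: active means maximal inhibition of the USP30 enzyme reaching 30% or more across the dose series; inactive means the rest.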
Pick from active, inactive when you respond.

COc1cc(OC)c2c(c1)C(=O)C1=C(COC(C)(O)C1)C2=O (stereo not given): inactive

(Q) How did this test come out for Cc1ccc2c(=O)c3c([nH]c2c1C)CCN(CC(=O)NCc1ccc2c(c1)OCO2)C3 ?
(A) inactive

(Q) State the result this test recorded for CCOC(=O)c1cc2c(ccn2C)n1CC(=O)N1CCc2ccccc2C1 .
(A) inactive

(Q) Hello, I am checking results. What call was entered for O=C1CC(c2cc3c(cc2Br)OCO3)c2cc3c(cc2N1)OCCO3 (stereo not given) ?
(A) active

(Q) Entry Cc1cccc(CNC(=O)c2ccc(-c3nnc(-c4cccc(C)c4)o3)cc2)c1 : call = ?
(A) active

###

Biological target: Ubiquitin carboxyl-terminal hydrolase 30 (Homo sapiens) (UniProt Q70CQ3)
Experiment: inhibitors of ubiquitin-specific protease 30 deubiquitylating enzyme, concentration dependence, in vitro biochemical, validation of primary hits (AID 1645865)
Conditions: purified USP30, Ub-rhodamine cleavage, fluorescence, 2 h
Active and inactive are the calls of the source.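 Rule for the calls: active = maximal inhibition of the USP30 enzyme reaching 30% or more across the dose series; inactive = the rest.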
Hello, when you answer, please use one of the following outcomes: class 1 for active, class 0 for inactive

Solved entries (count: 5):
COc1ccc(-c2cnnn2-c2ccc(NC(=O)c3c(F)cccc3F)cc2)cc1OC: class 0
CCOC(=O)c1ccc(NC(=O)c2cnc(N3CCOCC3)nc2)cc1: class 0
CCc1ccc2c(c1)[C@]1(C(=O)N2)[C@@H]2C(=O)N(c3ccc(Cl)cc3Cl)C(=O)[C@@H]2[C@@H]2CCCN21: class 0
COc1cc(NC(=O)Cn2c(=O)n(-c3ccc(CC(=O)NC4CCCC4)cc3)c(=O)c3ccccc32)cc(OC)c1: class 0
CC(C)Cc1cc(-c2nnc3sc(-c4ccco4)nn23)n[nH]1: class 0

(Q) Identify the outcome logged in this assay for the molecule shown: Cc1cccc(NC(=O)Cn2c(=O)n(Cc3ccc(F)cc3)c(=O)c3sccc32)c1
(A) class 1

(Q) // outcome(item) with item = Cc1cc(C(F)(F)F)n(-c2ccc(NC(=O)Nc3cccc(C(F)(F)F)c3)cc2)n1
(A) class 1

(Q) Recorded test outcome, item Cc1ccc(NC(=O)c2cnc3c(c2)c(=O)n(C)c(=O)n3C)cc1
(A) class 1

(Q) How was Cc1ccc(-c2csc(-n3ncc(C(=O)N4CCN(C(=O)Nc5cccc6ccccc56)C(C)C4)c3C(C)C)n2)cc1 (stereo unspecified) classified in this test?
(A) class 0

(Q) What call does the record list for Cc1ccc(Cn2nnc(-c3ccccc3Cl)n2)cc1 ?
(A) class 0

(Q) Call for entry Cc1cc(=O)n(CC(=O)Nc2ccccc2F)c(Nc2ccc(F)cc2)n1 :
(A) class 1

(Q) Record lookup: outcome of this test for c1ccc2c(c1)ccc1nnc(-c3ccc4c(c3)OCO4)n12 ?
(A) class 0

(Q) What outcome does the record of this test show for O=[N+]([O-])c1ccc(N2CCN(c3ncnc4c3[nH]c3ccc(F)cc34)CC2)cc1 ?
(A) class 1

###

Target: Ubiquitin carboxyl-terminal hydrolase 30 (Homo sapiens) (UniProt Q70CQ3)
Assay: inhibitors of ubiquitin-specific protease 30 deubiquitylating enzyme, concentration dependence, in vitro biochemical, validation of primary hits (AID 1645865)
Conditions: purified USP30, Ub-rhodamine cleavage, fluorescence, 2 h
Activity calls are given as the source filed them.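 How the source made its calls: active means maximal inhibition of the USP30 enzyme reaching 30% or more across the dose series; inactive means the rest.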
Pick one and only one: T (active), F (inactive)

Solved entries:
C=Cc1ccc(Cn2cc(S(=O)(=O)N3CCOCC3)ccc2=O)cc1: T
CCn1cc2c(n1)c(=O)n(Cc1ccc(C)cc1)c(=O)n2CC(=O)Nc1ccc(F)cc1: T
COc1ccc(CCC(=O)Nc2ccc3c(c2)Sc2ncccc2C(=O)N3C)cc1: F
COc1cccc(-c2cc(C(=O)N3CCN(c4ccc(N5CCOCC5)nn4)CC3)[nH]n2)c1: T
Cc1ccc2c(c1)c(=O)c(C(=O)c1ccccc1)cn2CC(=O)Nc1ccc2c(c1)OCCO2: T

(Q) Record request — test call for CC(=O)c1ccc(NC(=O)/C(=C/c2ccco2)n2nnnc2-c2ccccc2)cc1
(A) F

(Q) Dear colleague, could you share the recorded outcome for CNS(=O)(=O)c1ccc(CNC(=O)c2cc(-c3ccc(C)cc3)no2)cc1 when you have a moment?
(A) T

(Q) So what was the verdict on Cn1ncc2c(=O)n(Cc3cccc(Cl)c3)cnc21 in this test?
(A) F

(Q) Recorded test outcome, item Cn1cc(CCNC(=O)c2cc3ccccc3[nH]2)c2cccnc21
(A) F

(Q) Identify the outcome logged in this assay for the compound shown: COc1cccc(C(=O)Nc2ccc(-n3cnnn3)cc2)c1
(A) T

###

Target: Ubiquitin carboxyl-terminal hydrolase 30 (Homo sapiens)
Assay: inhibitors of ubiquitin-specific protease 30 deubiquitylating enzyme, concentration dependence, in vitro biochemical, validation of primary hits (AID 1645865)
Details: purified USP30, Ub-rhodamine cleavage, fluorescence, 2 h
assayReadout: IC50

O=C(O)c1ccc(C2Cc3c([nH]c(=O)[nH]c3=O)O2)cc1 (stereo not given): 9.78 µM

(Q) # get_value(readout= IC50, system= Ubiquitin carboxyl-terminal hydrolase 30 (Homo sapiens)) for CNc1nc2c(c(=O)n1Cc1ccccc1)CN(C(=O)c1ccc(CN)cc1)CC2
(A) 42.8 µM

###

Target: Ubiquitin carboxyl-terminal hydrolase 30 (Homo sapiens) (UniProt Q70CQ3)
Test: inhibitors of ubiquitin-specific protease 30 deubiquitylating enzyme, concentration dependence, in vitro biochemical, validation of primary hits (AID 1645865)
Conditions: purified USP30, Ub-rhodamine cleavage, fluorescence, 2 h
Active and inactive are the calls of the source.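 How the source made its calls: active means maximal inhibition of the USP30 enzyme reaching 30% or more across the dose series; inactive means the rest.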
Parameter call: string, one of active, inactive

Cc1ccc(C(=O)N2CCCC3(C2)Nc2cccnc2NC3=NC2CCCC2)s1 (stereo not given): inactive
CC(=O)c1cccc(NC(=O)c2ccc(-c3csc(C)n3)cc2)c1: inactive
Cc1cc(C(=O)N2CCOCC2)c(C)n1-c1ccc(O)cc1: inactive
CC(C)c1cc2c(c(O)c1O)[C@@]13CCCC(C)(C)[C@@H]1C[C@@H]2OC3=O: active
O=C(Cn1c(=O)c2sccc2n(Cc2ccc([N+](=O)[O-])cc2)c1=O)NCCc1ccccc1: active

Pending molecule:
(Q) Write down the call the test reported for this molecule. Item: Cc1cccc(O)c1-c1nc2c(-c3nc4c(C(=O)O)cccc4o3)cccc2o1
(A) inactive

###

Target: Ubiquitin carboxyl-terminal hydrolase 30 (Homo sapiens) (UniProt Q70CQ3)
Assay: inhibitors of ubiquitin-specific protease 30 deubiquitylating enzyme, concentration dependence, in vitro biochemical, validation of primary hits (AID 1645865)
Conditions: purified USP30, Ub-rhodamine cleavage, fluorescence, 2 h
Activity calls are given as the source filed them.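 How the source made its calls: active means maximal inhibition of the USP30 enzyme reaching 30% or more across the dose series; inactive means the rest.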
A correct response names exactly one class from Yes for active, No for inactive

Please review the entries below; each comes with its answer.
O=C(CSc1nnc2n1CCCCC2)Nc1ccc2[nH]c(=O)[nH]c2c1: No
CCCOc1ccc(C(=O)Nc2ccc(S(=O)(=O)Nc3cc(C)nc(C)n3)cc2)cc1: No
COc1ccc(CC(=O)Nc2nc(-c3ccco3)c(-c3ccco3)s2)cc1: No
O=C(COc1nsnc1N1CCOCC1)Nc1ccccc1F: No
CCOC(=O)c1cnn(-c2ccc(C(=O)Nc3ccc(C)c(Cl)c3)cc2)c1N: Yes
CCCn1c(=O)c(-c2ccc(C(=O)NCc3ccc(OC)cc3)cc2)nc2cccnc21: Yes
O=c1cc(CNc2ccc(Br)cc2)nc2nc(-c3ccccc3)[nH]n12: No
CCn1cc2c(n1)c(=O)n(Cc1ccccc1)c(=O)n2CC(=O)Nc1ccc(OC)cc1: Yes

(Q) State the result this test recorded for COc1ccc(-c2cc3nc([C@H](C)NC(=O)Cc4ccccc4C)nn3cn2)cc1 .
(A) Yes

(Q) # lookup: test call for O=C(CSc1nc2cc(S(=O)(=O)Nc3ccccc3Cl)ccc2o1)Nc1ccc(N2CCOCC2)cc1
(A) Yes

(Q) Could you check what this test reported for Cn1c(=O)c(C(=O)CN2CCN(c3ccc(O)cc3)CC2)c(N)n(Cc2ccccc2)c1=O ?
(A) No

(Q) For this compound, state the assay outcome: CCOc1ccc(NC(=O)Cn2cnc(S(=O)(=O)N3CCc4ccccc43)c2)cc1
(A) Yes

(Q) Hi, do you know how O=C(Nc1nnc2n1CCCS2)c1cc2ccccc2o1 came out in this test?
(A) No

(Q) Hey, what did the test say about Cc1ccc(CN2C(=O)c3cc4ccccc4n3CC2(C)C(=O)NCc2ccccc2)o1 (stereo unspecified) ?
(A) Yes

(Q) Record request — test call for Clc1ccccc1CSc1nnc(C2CCCCC2)n1Cc1ccccc1
(A) Yes

###

Molecular target: UniProt:Q70CQ3
Experiment: inhibitors of ubiquitin-specific protease 30 deubiquitylating enzyme, concentration dependence, in vitro biochemical, validation of primary hits (AID 1645865)
Conditions: purified USP30, Ub-rhodamine cleavage, fluorescence, 2 h
The source made the active and inactive calls.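 How the source made its calls: active means maximal inhibition of the USP30 enzyme reaching 30% or more across the dose series; inactive means the rest.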
Result category, one only: true (active), false (inactive)

Here are 8 molecules together with their reported answers.
CC12c3ccc4c(c3C(=O)c3occ(c31)C(=O)CC2O)CCC4=O (configuration not stated): false
Cc1nn(-c2cccc(F)c2)c2c1c(C)c(CCC(=O)NCc1ccccn1)c(=O)n2C: true
COc1cccc(CNC(=O)C2=Cc3cccc(OC)c3OC2)c1: false
CC1CCCCN1c1nc(F)c2c(c1F)S(=O)(=O)CCN2Cc1ccccc1 (configuration not stated): false
CCc1ccc(C(C)NC(=O)C2CCN(c3ccc4nncn4n3)CC2)cc1 (configuration not stated): false
O=C(COc1ccc2c(c1)CCC2)Nc1ccc2c(c1)CCC2: true
CCN(C(=O)c1cc2c(s1)-c1ccccc1OC2)c1ccccc1F: false
CCOc1ccc(NC(=O)Cn2c(=O)n(CC(=O)NCc3ccc(C)cc3)c(=O)c3sccc32)cc1: true

(Q) In this assay, the call recorded for COc1ccc(Cl)cc1N1C(=O)[C@H]2[C@@H](C1=O)[C@]1(C(=O)Nc3c(C)cc(C)cc31)N1CCC[C@@H]21 was what?
(A) false

(Q) Outcome logged for O=C(NC1CCN(c2nc(-c3cccnc3)nc3ccccc23)CC1)c1cccnc1 in this assay:
(A) false

Measured values drawn from PubChem BioAssay AID1645865 for this set.
